Catalogue of compounds with associated Plasma (1 μM), activity in % of control
TARGET_OR_SYSTEM: Dopamine beta hydroxylase (Homo sapiens)
Construct: 125 μl of plasma; tissue Instituto Português do Sangue Transplantação; host or cells: human plasma from healthy donors
TEST_DETAILS: Dopamine beta hydroxylase activity in human plasma
Format: biochemical
ASSAY_SETUP: inhibitor 1 μM

Known Plasma (1 μM), activity in % of control results, listed for orientation:
COMPOUND	Plasma (1 μM), activity in % of control
O=C(Cc1[nH]c(=S)n2c1C[C@@H](c1c(F)c(F)cc(F)c1F)C2)NC1CCC1 [Example 99]	10.3 % of control
O=C(Cc1[nH]c(=S)n2c1C[C@@H](c1cc(Br)ccc1F)C2)NC1CCCC1 [Example 74]	8.1 % of control

Form field Plasma (1 μM), activity in % of control, entry O=C(O)Cc1[nH]c(=S)n2c1[C@@H]1C[C@]1(c1c(F)ccc(Br)c1F)C2 [Example 51] : 0 % of control

Memo: COCCNC(=O)Cc1[nH]c(=S)n2c1C[C@H](c1c(F)c(F)cc(F)c1F)C2 [Example 73] , reported Plasma (1 μM), activity in % of control: 19.1 % of control

Field Plasma (1 μM), activity in % of control (entry CCOC(=O)Cc1[nH]c(=S)n2c1C[C@H](c1c(F)cccc1F)C2 [Example 65] ) reads 12.6 % of control

Field Plasma (1 μM), activity in % of control (entry O=C(Cc1[nH]c(=S)n2c1C[C@@H](c1c(F)ccc(Br)c1F)C2)N1CCCC1 [Example 101] ) reads 3.3 % of control

Sample O=C(Cc1[nH]c(=S)n2c1C[C@@H](c1c(F)ccc(Cl)c1F)C2)NCCCN1CCOCC1 [Example 89] ; Plasma (1 μM), activity in % of control observed: 0 % of control

----------
TARGET_OR_SYSTEM: DβH (Homo sapiens)
Construct: cellular homogenate (75 μg total protein); host or cells: SK-N-SH cells (homogenate)
Sequence (P09172 whole entry): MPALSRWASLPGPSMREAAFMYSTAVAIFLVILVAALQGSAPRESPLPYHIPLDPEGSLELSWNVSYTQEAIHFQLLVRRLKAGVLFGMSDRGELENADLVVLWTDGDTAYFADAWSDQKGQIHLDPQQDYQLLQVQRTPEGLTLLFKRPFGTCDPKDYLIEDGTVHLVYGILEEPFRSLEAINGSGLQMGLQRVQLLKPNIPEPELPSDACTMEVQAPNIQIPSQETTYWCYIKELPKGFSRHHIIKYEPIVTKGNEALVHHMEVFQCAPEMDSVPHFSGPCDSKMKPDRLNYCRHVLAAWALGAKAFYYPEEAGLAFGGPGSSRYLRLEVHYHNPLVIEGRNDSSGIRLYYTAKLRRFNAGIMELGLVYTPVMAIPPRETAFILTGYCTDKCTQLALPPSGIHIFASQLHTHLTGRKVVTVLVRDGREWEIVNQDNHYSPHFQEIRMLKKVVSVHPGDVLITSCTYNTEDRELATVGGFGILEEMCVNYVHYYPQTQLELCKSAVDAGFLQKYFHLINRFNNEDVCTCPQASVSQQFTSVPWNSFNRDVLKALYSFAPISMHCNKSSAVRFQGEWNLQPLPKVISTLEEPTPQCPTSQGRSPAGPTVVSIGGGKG
TEST_DETAILS: DβH inhibition assay in SK-N-SH cellular homogenates (tyramine to octopamine)
Format: biochemical
ASSAY_SETUP: SK-N-SH cell homogenate, inhibitor 1 μM
Counter-ions that a name gives are not always drawn.
SKNSH (1 μM), activity in % of control: recorded values

These recorded examples may help you get a feel for the data.
COMPOUND	MEASURED_METRIC	RESULT
NC(=O)Cc1[nH]c(=S)n2c1[C@@H]1C[C@]1(c1cc(F)cc(F)c1)C2	SKNSH (1 μM), activity in % of control	33.4 % of control
NC(=O)Cc1[nH]c(=S)n2c1[C@@H]1C[C@]1(c1c(F)ccc(Br)c1F)C2	SKNSH (1 μM), activity in % of control	0.2 % of control
NCCc1[nH]c(=S)n2c1[C@@H]1C[C@]1(c1cc(F)cc(F)c1)C2 [Example 35, Hydrochloride]	SKNSH (1 μM), activity in % of control	45.9 % of control

Field SKNSH (1 μM), activity in % of control (entry N#CNC(=O)Cc1[nH]c(=S)n2c1C[C@@H](c1c(F)c(F)cc(F)c1F)C2 ) reads 16.4 % of control

----------
TARGET_OR_SYSTEM: Dopamine beta hydroxylase (Homo sapiens, UniProt P09172)
Construct: 125 μl of plasma; tissue Instituto Português do Sangue Transplantação; host or cells: human plasma from healthy donors
Sequence (P09172 40-617 limits assumed): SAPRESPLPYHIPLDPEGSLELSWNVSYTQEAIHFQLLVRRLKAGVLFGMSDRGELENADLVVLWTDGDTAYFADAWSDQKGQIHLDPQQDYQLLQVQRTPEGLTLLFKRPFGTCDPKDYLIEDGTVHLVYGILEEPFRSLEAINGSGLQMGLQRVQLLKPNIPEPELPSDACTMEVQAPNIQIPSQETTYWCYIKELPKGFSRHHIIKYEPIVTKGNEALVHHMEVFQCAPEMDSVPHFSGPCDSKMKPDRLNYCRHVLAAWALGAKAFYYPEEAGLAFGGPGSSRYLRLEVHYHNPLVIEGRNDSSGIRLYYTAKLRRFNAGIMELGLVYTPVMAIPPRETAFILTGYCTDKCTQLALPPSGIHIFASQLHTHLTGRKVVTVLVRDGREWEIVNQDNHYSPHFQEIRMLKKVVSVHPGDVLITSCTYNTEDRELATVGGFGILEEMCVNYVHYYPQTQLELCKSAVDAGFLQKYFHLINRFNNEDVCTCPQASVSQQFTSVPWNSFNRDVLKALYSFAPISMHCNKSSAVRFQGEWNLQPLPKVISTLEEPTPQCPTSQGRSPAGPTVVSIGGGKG
TEST_DETAILS: Dopamine beta hydroxylase activity in human plasma
Assay type: biochemical
ASSAY_SETUP: inhibitor 0.1 μM, re-tested under the same experimental conditions, asterisked data believed to be correct
Marks after values point to notes of the source that are not given here.
Recorded measurements of Plasma (0.1 μM), activity in % of control, re-test (asterisked), one per entry

# example entries with known answers
MOLECULE	RESULT
CN(C(=O)Cc1c2n(c(=S)n1C)C[C@H](c1c(F)ccc(Br)c1F)C2)C1CCOC1 (stereo partly drawn) [Example 252]	6.7* % of control
Cl.Fc1cc(F)c(F)c([C@H]2Cc3c(CCN4CCCC4)[nH]c(=S)n3C2)c1F [Example 198]	99.1* % of control

--- query ---
Briefly, Plasma (0.1 μM), activity in % of control, re-test (asterisked) measured for Cn1c(CC(=O)N2CCOCC2)c2n(c1=S)C[C@H](c1c(F)ccc(Br)c1F)C2 [Example 233] : 9.7* % of control
